Test system: NOMO1
ASSAY DETAILS: AUC of viability dose-response curve (% viability x log10 dose units); higher = less sensitive
MEASUREMENT PARAMETERS: HPLM + 10% dialyzed FBS; 48 h
MEASURE: AUC of viability dose-response curve
Hey, just send me the number, nothing else.

Look over these answered cases.
CC[C@H](C)C(=O)O[C@H]1C[C@H](O)\C=C2\C=C/[C@H](C)[C@H](CC[C@@H](O)C[C@@H](O)CC(O)=O)[C@@H]12 = 441
NC(=O)c1cccc2cn(-c3ccc([C@@H]4CCCNC4)cc3)nc12 = 468
Oc1cccc(-c2nc(N3CCOCC3)c3oc4ncccc4c3n2)c1 = 464
[O-]C(=O)C1=C(C(=C(Cl)C(=C1Cl)Cl)Cl)C/2=C/3\C=C(I)/C(=O)/C(=C3OC4=C2C=C(I)C(=C4I)[O-])I = 474
O=C(c1ccc(F)c(F)c1Nc1ccc(I)cc1F)N1CC(O)([C@@H]2CCCCN2)C1 = 305
CN1C(=O)C[C@H](C(=O)N[C@@H](Cc2cnc[nH]2)C(=O)N2CCC[C@H]2C(N)=O)NC1=O = 462

Task item: Need AUC of viability dose-response curve, item `COc1cc(OC)c(OC)cc1C=O`
Reply: 467

Task item: Need AUC of viability dose-response curve, item `CC1(N2CCC(n3c([C@@H]4CCCNC4)nc4ccccc43)CC2)CCCCCCC1`
Reply: 420

Task item: Need AUC of viability dose-response curve, item `O=C(O)/C=C/c1ccc(O)c(O)c1`
Reply: 454

====

The following compounds are listed with their measured AUC of viability dose-response curve values.
System: NOMO1
ASSAY DETAILS: AUC of viability dose-response curve (% viability x log10 dose units); higher = less sensitive
MEASUREMENT PARAMETERS: RPMI 5 mM glucose + 10% dialyzed FBS; 48 h
Hey, just send me the number, nothing else.

Look over these answered cases.
Nc1nc(N)c2nc(-c3cccc(O)c3)c(-c3cccc(O)c3)nc2n1 = 440
ClC1=CC\2=C(OC3=C(C=CC=C3)\N=C2N4CCNCC4)C=C1 = 437
NC(=O)c1cccc2nc(-c3ccc([C@H]4CCCN4)cc3F)[nH]c12 = 466

Task item: Need AUC of viability dose-response curve, item `CN(C)CC[C@H](c1ccc(Cl)cc1)c1ccccn1`
Reply: 412

Task item: Need AUC of viability dose-response curve, item `CC[C@@H]1/C=C(\C)C[C@H](C)C[C@H](OC)[C@H]2O[C@@](O)(C(=O)C(=O)N3CCCC[C@H]3C(=O)O[C@H](/C(C)=C/[C@@H]3CC[C@H](Cl)[C@H](OC)C3)[C@H](C)[C@@H](O)CC1=O)[C@H](C)C[C@@H]2OC`
Reply: 474

Task item: Need AUC of viability dose-response curve, item `[O-]C(=O)C1=C(C(=C(Cl)C(=C1Cl)Cl)Cl)C/2=C/3\C=C(I)/C(=O)/C(=C3OC4=C2C=C(I)C(=C4I)[O-])I`
Reply: 457

Task item: Need AUC of viability dose-response curve, item `COc1cc([C@H]2Oc3cc([C@H]4Oc5cc(O)cc(O)c5C(=O)[C@@H]4O)ccc3O[C@@H]2CO)ccc1O`
Reply: 452

Task item: Need AUC of viability dose-response curve, item `COC[C@H](c1ccc(C(F)(F)F)cc1)N1CCN(C2(C)CCN(C(=O)c3c(C)ncnc3C)CC2)C[C@H]1C.O=C(O)/C=C\C(=O)O`
Reply: 424

====

System: SEM cells
ASSAY DETAILS: cell viability relative to DMSO control; higher = less cytotoxic
MEASUREMENT PARAMETERS: RPMI 5 mM glucose + 10% FBS; 48 h; 1.71 µM
MEASURE: cell viability (%)
Answer with a number only, understood to be in %.

Look over these answered cases.
O=C\1N(N\C=C1[N]2C=CN=N2)C3=NC=NC(=C3)N4CCOCC4 = 13.3
CNC[C@H](O)c1cccc(O)c1 = 78.1
CN1CCC[C@@H]1CCO[C@](C)(c1ccccc1)c1ccc(Cl)cc1 = 114

Consider now this further compound.
Task item: Need cell viability, item `CN(C)CCN(C)C(=O)c1ccc(NC(=O)Nc2ccc(-c3nc(N4CCOCC4)c4ccn(CC(F)(F)F)c4n3)cc2)cc1`
Reply: 45.9

====

The following compounds are listed with their measured AUC of viability dose-response curve values.
System: P12-Ichikawa
ASSAY DETAILS: AUC of viability dose-response curve (% viability x log10 dose units); higher = less sensitive
MEASUREMENT PARAMETERS: HPLM + 10% dialyzed FBS; 48 h
Hey, just send me the number, nothing else.

CO/C1=C/C(C)=C\[C@@H](C)[C@@H](O)[C@@H](C)C/C(C)=C\C=C/[C@H](OC)[C@@H]([C@@H](C)[C@@H](O)[C@H](C)[C@@]2(O)C[C@@H](O)[C@H](C)[C@@H](C(C)C)O2)OC1=O = 291

Task item: Need AUC of viability dose-response curve, item `Cc1cc(Nc2cc(CN3CCOCC3)c3nc(C)c(Cc4ccc(Cl)cc4F)n3n2)[nH]n1`
Reply: 436

Task item: Need AUC of viability dose-response curve, item `N[S+](=O)([O-])NCCNc1nonc1/C(=N/O)Nc1ccc(F)c(Br)c1`
Reply: 354

Task item: Need AUC of viability dose-response curve, item `Cn1c(=O)n(-c2ccc(C(C)(C)C#N)cc2)c2c3cc(-c4cnc5ccccc5c4)ccc3ncc21`
Reply: 337

Task item: Need AUC of viability dose-response curve, item C[C@H]1CC2C3CCC/4=C/C(=O)/C=C\[C@]4(C)[C@@]3(F)[C@@H](O)C[C@]2(C)[C@@]1(O)C(=O)CO (stereo not given in full)
Reply: 374

Task item: Need AUC of viability dose-response curve, item `COC1=CC=C(C=C1O)C/2=C/C(=O)C3=C(O2)C=C(O)C=C3O`
Reply: 440

Task item: Need AUC of viability dose-response curve, item `CC(C)(O)Cn1c(NC(=O)c2ccc(-c3cn[nH]c3)s2)nc2cc(CN3CCOCC3)ccc21`
Reply: 365

Task item: Need AUC of viability dose-response curve, item `COc1cc2nc(-c3cc(F)ccc3O)nc(N[C@@H]3CNC[C@H]3C(C)(C)O)c2cc1OC`
Reply: 436

Task item: Need AUC of viability dose-response curve, item O=C(O)COCCN1CCN(C(c2ccccc2)c2ccc(Cl)cc2)CC1 (stereo not given)
Reply: 461

====

Tested on: SEM cells
ASSAY DETAILS: AUC of viability dose-response curve (% viability x log10 dose units); higher = less sensitive
MEASUREMENT PARAMETERS: HPLM + 10% dialyzed FBS; 48 h
MEASURE: AUC of viability dose-response curve
Hey, just send me the number, nothing else.

Task item: # get_value(readout= AUC of viability dose-response curve, system= SEM cells) for `Nc1nc(N)c2nc(-c3cccc(O)c3)c(-c3cccc(O)c3)nc2n1`
Reply: 409

Task item: # get_value(readout= AUC of viability dose-response curve, system= SEM cells) for `CC(=O)NCCC(=O)N[C@@H](CCC(N)=O)C(=O)N[C@@H](CO)C(=O)N[C@@H](CCC(N)=O)C(=O)N[C@@H](CCC(N)=O)C(=O)N[C@H](C(=O)N[C@@H](Cc1ccccc1)C(=O)N[C@]1(C)CCCCCC/C=C\CCC[C@@](C)(C(=O)N[C@@H](CCC(N)=O)C(=O)N[C@@H](CC(N)=O)C(N)=O)NC(=O)[C@H](CC(C)C)NC(=O)[C@H](CC(C)C)NC(=O)[C@@H](CCCNC(=N)N)NC(=O)[C@H](Cc2c[nH]c3ccccc23)NC(=O)[C@H](CC(C)C)NC(=O)[C@H](CC(N)=O)NC1=O)[C@H](C)O`
Reply: 376

Task item: # get_value(readout= AUC of viability dose-response curve, system= SEM cells) for C=CC(=O)Nc1cccc(Nc2nc(NC3CCC(N(C)C)CC3)nc3c2ncn3C(C)C)c1 (stereo not drawn)
Reply: 319

====

The following compounds are listed with their measured cell viability values.
Test system: P12-Ichikawa
ASSAY DETAILS: cell viability relative to DMSO control; higher = less cytotoxic
MEASUREMENT PARAMETERS: HPLM + 10% dialyzed FBS; 48 h; 0.000781 µM

CN1\C(=C(\O)C2=C(C=CC=C2)[S+]1([O-])=O)C(=O)NC3=CC=CC=N3 = 96.6%

Consider now this further compound.
Task item: Need cell viability, item `Cc1ccc([S+](=O)([O-])Nc2nc3ccccc3nc2Nc2ccc3nsnc3c2)cc1`
Reply: 105%

====

Tested on: NOMO1
ASSAY DETAILS: cell viability relative to DMSO control; higher = less cytotoxic
MEASUREMENT PARAMETERS: HPLM + 10% dialyzed FBS; 48 h; 0.19 µM
The following compounds are listed with their measured cell viability values.
Answer with a number only, understood to be in %.

Look over these answered cases.
C[S+](=O)([O-])c1ccc(-c2cnc(N)c(C(=O)Nc3ccccc3)n2)cc1 = 145
O=C1Nc2ccc(I)cc2/C1=C/c1cc(Br)c(O)c(Br)c1 = 111
O=C(Nc1ncc(SCCN2CCCC2)s1)[C@]1(c2ccc([S+](=O)([O-])C3CC3)cc2)C[C@H]1C1CCCCC1 = 106
Nc1nc(N)c2nc(-c3cccc(O)c3)c(-c3cccc(O)c3)nc2n1 = 126
COC(=O)C1C2CC3c4[nH]c5cc(OC)ccc5c4CCN3CC2CC(OC(=O)c2cc(OC)c(OC)c(OC)c2)C1OC (configuration not stated) = 112
COc1cc2c(Nc3ccc(Br)cc3F)ncnc2cc1OCC1CCN(C)CC1 = 85.5
NC(=O)c1cccc2cn(-c3ccc([C@@H]4CCCNC4)cc3)nc12 = 122
O=C(Cc1ccc(-c2ccc(OCCN3CCOCC3)cc2)cn1)NCc1ccccc1 = 41.9

Consider now this further compound.
Task item: Need cell viability, item `Cc1cc(C(=O)N2CCN(c3cccc(Cl)c3)CC2)n(-c2ccccc2)n1`
Reply: 116

Provenance of the data: the supplement of paper PMC11451515
